experiment: chemical genetic growth profiling, strain panel (AID 1159580);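 note: tested at 20 µM; growth read once vehicle control cultures reached saturation at 30 °C; 1 = growth at the plate median or of vehicle wells; lower values mean less growth of the strain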; settings: S. cerevisiae deletion strains, growth OD, locus YPR135W, strain CTF4
Screen size: about 5,500 compounds; about 2,000 (36%) were called active. Another 18% or so got no clear call; they are omitted. Cut-off read from the data, not from the text of the source: active = normalized growth mostly below about 0.91 (no sharp cut-off); inconclusive = no clear call, values can overlap the other calls; inactive = mostly above about 0.92. The list shows a part of the results.
Would you mind answering with one of these outcomes? yes (active), no (inactive)

- CNC(=S)N/N=C\c1cc(Br)cc(Br)c1O: yes
- Cc1ccc(NC(=O)CC#N)c(C)c1: no
- Cc1ccc(SC(=O)c2cccnc2Oc2ccccc2)cc1: no
- O=C(Nc1ccc(Cl)cc1)N1CCN(c2ncccc2C(F)(F)F)CC1: no
- Cc1ccc(Sc2ncccc2C(=O)NCC(=O)O)cc1: no

Query: What was the test verdict on "O=[N+]([O-])c1cccnc1Oc1ccc(Cl)cc1" ?
Result: yes

Query: What was the test verdict on "CCSc1ncccc1C(=O)N[C@@H](CCSC)C(=O)OC" ?
Result: no

Query: What was the test verdict on "O=C1C(c2ccc(Br)cc2)=C(O)c2ccccc21" ?
Result: no

Query: What was the test verdict on "O=C(O)CCc1nc(-c2ccccc2)c(-c2ccccc2)o1" ?
Result: no

Query: What was the test verdict on "NC(=S)CS(=O)(=O)c1ccc(C(F)(F)F)cc1" ?
Result: no

Query: What was the test verdict on "COc1cc(NC(=S)N2CCN(c3ccccc3OC)CC2)c(OC)cc1Cl" ?
Result: no

Query: What was the test verdict on COc1ccccc1N1CCN(C(=O)C(C)Nc2ccccn2)CC1 (stereo not drawn) ?
Result: no

Query: What was the test verdict on "Cc1ccc(Sc2nc(C)c([N+](=O)[O-])c(C)c2C#N)cc1" ?
Result: no

Query: What was the test verdict on "O=C(NC1CCCCC1)N1CCN(c2ncccc2C(F)(F)F)CC1" ?
Result: no

Query: What was the test verdict on "COc1ccccc1N1CCN(C(=O)c2cccs2)CC1" ?
Result: no

Query: What was the test verdict on "CCN(CCS(=O)(=O)c1ccc(C)cc1)S(=O)(=O)c1ccccc1" ?
Result: no

Query: What was the test verdict on "O=C(NCCCCO)OCC1c2ccccc2-c2ccccc21" ?
Result: no

Query: What was the test verdict on "COC(=O)c1cccnc1Sc1ccc(C)cc1" ?
Result: yes

* * *

assay: chemical genetic growth profiling, strain panel (AID 1159580); conditions: S. cerevisiae deletion strains, growth OD, locus YJL166W, strain qcr8, hits give low values
Hit rate of the full screen: of about 5,500 compounds, about 2,000 (36%) were called active. Roughly 18% stayed inconclusive and do not appear here. Some of the results follow.
I'd appreciate it if you marked entries y when normalized growth is lower than 1 and n when it is not.

- C[C@@H](CO)NC(=O)C1C=C2c3cccc4[nH]cc(c34)C[C@H]2N(C)C1 (some centres undefined): n

Continue with the molecule presented below.
Query: Check if normalized growth falls below 1 for "Nc1ccc(S(=O)(=O)Nc2ncccn2)cc1" .
Result: y

* * *

Items are presented alongside their recorded normalized growth.
assay: chemical genetic growth profiling, strain panel (AID 1159580); conditions: S. cerevisiae deletion strains, growth OD, locus YIL125W, strain kgd1, hits give low values
In all, about 5,500 compounds went through this assay and about 2,000 (36%) were called active. About 18% were inconclusive and are not listed. This is one part of the list.
Lab note: record just the number, no unit beside it.

The examples below pair each entry with its known result.
* NCCCN | 0.991
* COC(=O)C[C@H]1C(C)(C)[C@@H](O)[C@@H]2CC3=C4CC(O)O[C@@H](c5ccoc5)[C@]4(C)CCC3[C@@]1(C)C2=O (some centres not stated) | 0.987
* C/C=C(/C)C(=O)O[C@@H]1Cc2c(ccc3ccc(=O)oc23)OC1(C)C | 1
* CC1(C)S[C@@H]2C(N3C(=O)[C@@H](c4ccccc4)NC3(C)C)C(=O)N2[C@H]1C(=O)O (some centres not stated) | 1.02
* Cc1cc(N)c2ccccc2[n+]1CCCCCCCCCC[n+]1c(C)cc(N)c2ccccc21 | 0.0847

Next up:
Query: Request the reported normalized growth associated with NC[C@H]1O[C@H](OC2[C@@H](N)C[C@@H](N)[C@H](O[C@H]3O[C@H](CO)[C@@H](O)[C@H](N)[C@H]3O)[C@H]2O)[C@H](O)[C@@H](O)[C@@H]1O (some centres not stated)
Result: 0.987

* * *

Items are presented alongside their recorded normalized growth.
assay: chemical genetic growth profiling, strain panel (AID 1159580); settings: S. cerevisiae deletion strains, growth OD, locus YER016W, strain bim1, hits give low values
Out of some 5,500 compounds screened, about 2,000 (36%) were called active. Inconclusive results (about 18%) are left out. Some of the results follow.
Lab note: record just the number, no unit beside it.

The examples below pair each entry with its known result.
* Cc1cc(N)c2ccccc2[n+]1CCCCCCCCCC[n+]1c(C)cc(N)c2ccccc21 | 0.0649
* CC1(C)S[C@@H]2[C@H](NC(=O)[C@@H](N)c3ccc(O)cc3)C(=O)N2[C@H]1C(=O)O | 0.967
* COc1ccc(-c2cc(=O)c3c(O)cc(O)cc3o2)cc1 | 1.01
* COC(=O)N/N=C\c1c[n+]([O-])c2ccccc2[n+]1[O-] | 0.998

Query: Request the reported normalized growth associated with COC1CC(O[C@H]2CC[C@]3(C=O)C4CC[C@]5(C)C(C6=CC(=O)OC6)CC[C@]5(O)C4CC[C@]3(O)C2)OC(C)C1O (stereo not given in full)
Result: 0.983

* * *

experiment: chemical genetic growth profiling, strain panel (AID 1159580); details: S. cerevisiae deletion strains, growth OD, locus YLR221C, strain rsa3, hits give low values
In all, about 5,500 compounds went through this assay and about 2,000 (36%) were called active. Inconclusive results (about 18%) are left out. The list shows a part of the results.
Items are presented alongside their recorded normalized growth.
Lab note: record just the number, no unit beside it.

- CC(C)=CC1C(CO)C1(C)C (stereo unspecified): 1.02

Query: Request the reported normalized growth associated with NS(=O)(=O)c1cc2c(cc1C(F)(F)F)NC(Cc1ccccc1)NS2(=O)=O (stereo unspecified)
Result: 0.973

Query: Request the reported normalized growth associated with CC(=O)O[C@@H]1CC2C(C)(CC[C@H](O)C2(C)C)C2CC[C@]3(C)C(=CC(=O)O[C@H]3c3ccoc3)C21C (stereo partly specified)
Result: 1

* * *

experiment: chemical genetic growth profiling, strain panel (AID 1159580);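 note: tested at 20 µM; growth read once vehicle control cultures reached saturation at 30 °C; 1 = growth at the plate median or of vehicle wells; lower values mean less growth of the strain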; conditions: S. cerevisiae deletion strains, growth OD, locus YBR229C, strain ROT2, hits give low values
Hit rate of the full screen: of about 5,500 compounds, about 2,000 (36%) were called active. Roughly 18% stayed inconclusive and do not appear here. This is one part of the list.
I'd appreciate it if you marked entries label 1 when normalized growth is lower than 1 and label 0 when it is not.

* COC(=O)c1cccnc1Sc1ccc(C)cc1 | label 1
* COc1ccc(OC)c(CNC(=O)Cc2cccs2)c1 | label 0
* COC(=O)CC1C(C)(C)C(OC(C)=O)[C@@H]2[C@@H](OC(C)=O)[C@]34O[C@@]2(O)[C@]1(C)C3CC[C@]1(C)C4=CC(=O)O[C@H]1c1ccoc1 (some centres not stated) | label 1

Query: Check if normalized growth falls below 1 for "Nc1ccc(S(=O)(=O)Nc2ncccn2)cc1" .
Result: label 1

Query: Check if normalized growth falls below 1 for "Cc1nnsc1C(=O)O/N=C1/CCSc2ccc(F)cc21" .
Result: label 1

Query: Check if normalized growth falls below 1 for "CN(C)/C=C1\CSc2ccc(F)cc2C1=O" .
Result: label 1

* * *

test: chemical genetic growth profiling, strain panel (AID 1159580);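 note: tested at 20 µM; growth read once vehicle control cultures reached saturation at 30 °C; 1 = growth at the plate median or of vehicle wells; lower values mean less growth of the strain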; conditions: S. cerevisiae deletion strains, growth OD, locus YDR150W, strain NUM1, hits give low values
Out of some 5,500 compounds screened, about 2,000 (36%) were called active. About 18% were inconclusive and are not listed. The list shows a part of the results.
I'd appreciate it if you marked entries 1.0 when normalized growth is lower than 1 and 0.0 when it is not.

These recorded examples may help you get a feel for the data.
• Cn1c(SCC(=O)N2CCOCC2)nnc1-c1ccc2ncccc2c1 = 1.0
• CC(C)(C)c1ccc(Oc2ncccc2NC(=O)c2ccccc2C(F)(F)F)cc1 = 0.0
• O=C(O/N=C1/CCCc2[nH]c3ccccc3c21)c1ccc(Cl)cc1Cl = 1.0
• CC(=O)C1=C(C)Nc2ccccc2S1 = 1.0
• NNC(=O)c1cccnc1Oc1ccccc1 = 0.0
• CCOC(=O)/C(C#N)=C/N=C(N/N=C\c1c(Cl)cccc1Cl)SC = 0.0
• Cn1c(SCc2ccccc2)nnc1-c1ccc2ncccc2c1 = 1.0

Continue with the molecule presented below.
Query: Check if normalized growth falls below 1 for "COC(=O)c1cccnc1Sc1ccc(C)cc1" .
Result: 1.0

* * *

experiment: chemical genetic growth profiling, strain panel (AID 1159580);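 note: tested at 20 µM; growth read once vehicle control cultures reached saturation at 30 °C; 1 = growth at the plate median or of vehicle wells; lower values mean less growth of the strain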; conditions: S. cerevisiae deletion strains, growth OD, locus YOR184W, strain ser1
Screen size: about 5,500 compounds; about 2,000 (36%) were called active. Not shown: some 18% with an inconclusive outcome. Cut-off read from the data, not from the text of the source: active = normalized growth mostly below about 0.91 (no sharp cut-off); inconclusive = no clear call, values can overlap the other calls; inactive = mostly above about 0.92. This is one part of the list.
Would you mind answering with one of these outcomes? 1 (yes) (active), 0 (no) (inactive)

* O=c1c(O)cc([C@H]2Oc3cc(O)cc(O)c3C[C@H]2O)cc2c([C@H]3Oc4cc(O)cc(O)c4C[C@H]3O)cc(O)c(O)c12 | 0 (no)
* CC12CCC3C(CCC4(O)CC(O)CCC34/C=N/NC(N)=O)C1(O)CCC2C1=CC(=O)OC1 (centres undefined) | 0 (no)
* Cc1c(OCC(F)(F)F)ccnc1CS(=O)c1nc2ccccc2[nH]1 (centres undefined) | 0 (no)
* NC(=O)c1ccccc1O | 0 (no)
* NC(N)=Nc1ccc(Cl)cc1 | 0 (no)
* C[C@H]1O[C@@H](O[C@H]2[C@@H](O)C[C@H](O[C@H]3[C@@H](O)C[C@H](O[C@H]4CC[C@]5(C)C6C[C@@H](O)[C@]7(C)[C@@H](C8=CC(=O)OC8)CC[C@]7(O)C6CC[C@@H]5C4)O[C@@H]3C)O[C@@H]2C)C[C@H](O)[C@@H]1O (some centres undefined) | 0 (no)

Query: What was the test verdict on "O=C(/C=C(\O)c1ccccc1)c1ccccc1O" ?
Result: 1 (yes)

Query: What was the test verdict on C[C@]12CC[C@H](O)C[C@H]1CCC1C2CC[C@]2(C)[C@@H](C3=CC(=O)OC3)[C@@H](O)C[C@]12O (some centres undefined) ?
Result: 0 (no)

Query: What was the test verdict on "O=C(O)c1ccccc1O" ?
Result: 0 (no)
